Give in vivo MRT_(hr)_Human for every item shown.
PARTICULARS: human

For the compound shown here, COc1cccc(C2(O)CCCCC2CN(C)C)c1 (centres unmarked) , give the reported in vivo MRT_(hr)_Human. 7.179 h

Moving on to CCCCc1nc(Cl)c(CO)n1Cc1ccc(-c2ccccc2-c2nn[nH]n2)cc1 0.752 h

Moving on to O=C(NCC1CCCCN1)c1cc(OCC(F)(F)F)ccc1OCC(F)(F)F (centres unmarked) [Flecainide] 20.748 h

Moving on to O=C1CN(/N=C/c2ccc([N+](=O)[O-])o2)C(=O)N1 0.979 h

Moving on to CCCNC(C)C(=O)Nc1ccccc1C (centres unmarked) 2.126 h

The measured values listed here are drawn from paper PMC8342319.
